Tested on: Malme-3M
Test: NCI tumour cell line growth inhibition, 48 h
Activity calls are given as the source filed them. No stated cut-off is given here; in the data, active = GI50 up to about 1.1 µM and inactive = higher.
Outcomes: active, inactive

molecule	answer-label
CC1CC(C)(O)CC(C(O)CC2CC(=O)NC(=O)C2)C1=O (centres undefined)	active
CCCN1CN(C(C(=O)N[C@@H]2C(=O)N3C(C(=O)O)=C(C)CSC23)c2ccccc2)CSC1=S (some centres undefined)	inactive
C=C1C(=O)O[C@@]23C1CC[C@@H](C)C2CC[C@@]1(C)OC31 (some centres undefined)	inactive
CCOc1cc2c(=O)oc3c(OC)ccc4ccc(c1OC)c2c43	inactive
O=C(O)COc1ccc(C(=O)/C(SS/C(C(=O)c2ccc(OCC(=O)O)c(Cl)c2Cl)=C2\C=C(c3ccc(Br)cc3)SS2)=C2/C=C(c3ccc(Br)cc3)SS2)c(Cl)c1Cl	inactive
COc1cc([C@@H]2c3cc4c(cc3[C@@H](NCc3cccc(C#N)c3)C3COC(=O)[C@@H]32)OCO4)cc(OC)c1O (some centres undefined)	inactive
N#CC1=C(N)N2C(=O)/C(=C/c3ccccc3O)N=C2S1	inactive
COc1cc2c(cc1O)C1Cc3ccc(OC)c(O)c3C(C2)N1C (centres undefined)	inactive
COc1cc(C)cc(C(=O)OCc2ccccc2)c1C1=C(Cl)C(=O)C(Cl)=CC1=O	inactive

----------
Tested on: EKVX
Assay: NCI tumour cell line growth inhibition, 48 h
Active and inactive are the calls of the source. No stated cut-off is given here; in the data, active = GI50 up to about 1.1 µM and inactive = higher.
Listed next: entries and their corresponding GI50.

compound	GI50
CC1CC[C@@]2(OC1)OC1C[C@H]3[C@@H]4CC[C@H]5CC(OC6OC(CO)C(OC7OC(CO)C(O)C(O)C7O)C(O)C6O)CCC5(C)[C@H]4CCC3(C)C1[C@@H]2C (stereo not given in full)	5.33 µM (inactive)
O=c1[nH]c(=S)[nH]n1C(=S)n1[nH]c(=S)[nH]c1=O	> 100 µM (inactive)
NNc1nnc(-c2ccccc2)nc1Cc1ccccc1	22.3 µM (inactive)
O=C(NCCCCNCCCNC(=O)C(F)(F)F)C(F)(F)F	> 100 µM (inactive)
COc1ccc2nc3c([N+](=O)[O-])ccc4c3c(c2c1)N=CN4CCCN(C)C	1.64 µM (inactive)
COc1ccc(/C=C2\N/C(=N/N)N=C2Cl)cc1	> 100 µM (inactive)
O=c1c2ccccc2nc(-c2cc3c(cc2Cl)Sc2nccn2S3(=O)=O)n1-c1ccccc1	21.4 µM (inactive)
CN1/C(=C\N=O)C(C)(C)N(O)C1(C)C	> 100 µM (inactive)
COc1ccc(Nc2nc(N)c(C(=O)c3cccs3)s2)cc1	16.9 µM (inactive)
CC1=NC(=N)N=C(C)C1/N=N/c1ccc2[nH]c(C)nc2c1 (stereo not given)	> 100 µM (inactive)
COc1ccc(C2COc3c(ccc(O)c3C)C2)cc1OC (stereo not given)	136 µM (inactive)
COc1ccc(/N=c2/oc3ccccc3cc2C(N)=O)cc1	> 100 µM (inactive)
O=C1C=C(c2ccccc2)NC1(c1ccccc1)c1cc(-c2ccccc2)[nH]c1-c1ccccc1 (stereo not given)	> 100 µM (inactive)
O=C(NCCCCCCCCNC(=O)c1cccc2ccccc12)c1cccc2ccccc12	19.5 µM (inactive)
CCC(C(=O)c1ccc(OC)c(OC)c1)N(C(=O)C(F)(F)F)C(C)c1ccccc1 (stereo not given)	> 100 µM (inactive)
COC1C2c3cc4c(cc3CC(C#N)(c3ccccc32)N1C(=O)c1ccccc1)OCO4 (stereo not given)	> 100 µM (inactive)
CC1(C)OCC2OC3([C@@H]4OC(C)(C)O[C@H]4CO)OC(C)(C)OC3C2O1 (stereo not given in full)	> 100 µM (inactive)
Cn1c(=O)c2c(ncn2Cc2ccc(O)c([N+](=O)[O-])c2)n(C)c1=O	> 100 µM (inactive)
CCOC(=O)/C=C/c1nc(C#N)c(N)o1	> 100 µM (inactive)
C=C1C(=O)O[C@@H]2OC3(C)CCC4C(C)CCC1C42OO3 (stereo not given in full)	11.4 µM (inactive)
O=C(CC/C(CC(=O)c1ccc(Cl)cc1)=N\O)Nc1cccc(Cl)c1	> 100 µM (inactive)
CC1=C2C=CC(=O)C[C@@]2(C)CCC1	> 100 µM (inactive)
CCOP(=O)(OCC)OC1c2[nH]ccc2-c2cc(C(=O)OC)[nH]c2C1OC (stereo not given)	> 100 µM (inactive)
O=C1C=CN(C2OC(CO)C(O)C2O)C(=O)C1 (stereo not given)	> 2500 µM (inactive)
CCOC(=O)c1nc2cc(C(F)(F)F)ccc2nc1Nc1ccc(F)cc1	68.2 µM (inactive)
CCc1nc2cc3cccnc3c(Cl)c2[nH]c1=O	> 100 µM (inactive)
[N-]=[N+]=C1C(=O)C2CC3CC(C2)CC1C3	> 100 µM (inactive)
Cc1cccc(N(CC(=O)O)S(=O)(=O)c2ccccc2)c1	> 100 µM (inactive)
CC(C)C(C/C=C1\CC(CO)(COC(=O)c2ccccc2)OC1=O)C(C)C (stereo not given)	14.9 µM (inactive)
Cc1ccc(C2(C)CC/C(=N/N=C3/CCC(C)(c4ccc(C)c(C)c4)c4cc(C)c(C)cc43)c3cc(C)c(C)cc32)cc1C (stereo not given)	> 100 µM (inactive)
CC[C@@H]1OC2(C)CC(S(=O)(=O)c3ccccc3)CC1O2 (stereo not given in full)	> 100 µM (inactive)
CCCN1CN(C(C(=O)N[C@@H]2C(=O)N3C(C(=O)O)=C(C)CSC23)c2ccccc2)CSC1=S (stereo not given in full)	> 100 µM (inactive)
Cc1cc(C)c(O)c(Cc2cccc(Cc3cc(C)cc(C)c3O)c2O)c1	> 100 µM (inactive)
CN1C(C)(C)CC(=O)C(Br)C1(C)C (stereo not given)	> 100 µM (inactive)
NC(=O)c1ccc[n+](C2=C([N-]S(=O)(=O)c3ccccc3)C(=O)c3ccccc3C2=O)c1	14.3 µM (inactive)

----------
Test system: OVCAR-3
Experiment: NCI tumour cell line growth inhibition, 48 h
The source made the active and inactive calls. Cut-off read from the data, not from the text of the source: active = GI50 up to about 1.1 µM and inactive = higher.
Outcomes: True = active, False = inactive

compound	answer-label
CC1CC[C@@]2(OC1)OC1C[C@H]3[C@@H]4CC[C@H]5CC(OC6OC(CO)C(OC7OC(CO)C(O)C(O)C7O)C(O)C6O)CCC5(C)[C@H]4CCC3(C)C1[C@@H]2C (stereo not given in full)	False
O=C1c2cccnc2-c2nccc3c2c1nc1ccccc13 [ASCIDIDEMIN]	True
CC1CC/C(=C\c2ccc(F)cc2)C2=C1C(c1ccc(F)cc1)NC(=S)N2 (stereo not given)	False
CC(=O)OC12CC[N+]3(C)CCCCC3C1=Nc1ccccc12 (stereo not given)	False
Cc1nc2c(s/c(=N\N)n2-c2ccccc2)c(=O)[nH]1	False
CCC(CCCCC1CC[C@H]2CC(=O)C[C@@H]12)OC (stereo not given in full)	False
CC(C)=CCC/C(C)=C/Cc1c2c(c3oc(-c4ccc(O)c(O)c4)c(O)c(=O)c3c1O)C=CC(C)(C)O2	False
CC(=O)N1CC2Nc3ccccc3C2CC1CO (stereo not given)	False
O=C(NC1C(=O)NC(CCc2ccccc2)NC1=O)OCc1ccccc1 (stereo not given)	False
[N-]=[N+]=NC(c1ccccc1)(c1ccccc1)c1ccccc1	False
CC(C)N(C(=O)C12C3C4C1C1C2C3C41C(=O)N(C(C)C)C(C)C)C(C)C (stereo not given)	False
O=C(O)NC(c1ccccc1)C(NC(=O)c1ccccc1)c1ccccc1 (stereo not given)	False
O=C1C(Cl)=C(Cl)C(=O)N1c1cccc(C(F)(F)F)c1	False
Cc1cc(C)n(C(=O)C(C)Sc2nnc(SC(C)C(=O)n3nc(C)cc3C)s2)n1 (stereo not given)	False
CC(=O)OCC1OC(NC(=O)N(CCCl)N=O)C(OC(C)=O)C(OC(C)=O)C1OC(C)=O (stereo not given)	False

----------
Test system: SW-620
Assay: NCI tumour cell line growth inhibition, 48 h
Active and inactive are the calls of the source. Cut-off read from the data, not from the text of the source: active = GI50 up to about 1.1 µM and inactive = higher.
Possible outcomes: active, inactive

compound	answer-label
CC(C)(O)[C@H](CCO)O[Si](c1ccccc1)(c1ccccc1)C(C)(C)C	inactive
Cn1c(=O)c2c(nc(C[N+]3([O-])CCOCC3)n2C)n(C)c1=O	inactive
CC1=C2C(=CC(C)(CO)C2O)C(=O)C(C)(O)C12CC2 (configuration not stated)	active
NNc1nnc(-c2ccccc2)nc1Cc1ccccc1	inactive
COCC1OC(OC2C3=C(C(C)C)CCC3(C)/C=C3\C(CCC3(O)COC)C(C)C2O)C(O)C2OC3OC12OC3(C)C1CO1 (configuration not stated)	inactive
COc1ccc2ccccc2c1/C=C/C(=O)c1ccccc1	inactive
CCC1(O)C(=O)OCc2c1cc1n(c2=O)Cc2cc3ccc(CO)cc3nc2-1 (configuration not stated)	inactive
COc1cc([C@@H]2c3cc4c(cc3[C@@H](NCc3cccc(C#N)c3)C3COC(=O)[C@@H]32)OCO4)cc(OC)c1O (some centres not stated)	active
Cc1nc2ccccc2n1Cc1nnc2n1N=C(c1ccccc1)CS2	inactive
O=c1c2ccccc2nc(-c2ccccc2)n1NC(=S)Nc1ccccc1	inactive
Nc1ccc2c(=O)cc(-c3cccs3)[nH]c2n1	active
COC(=O)C1C(C(=O)OC)N(Cc2ccccc2)C(=O)N1Cc1ccccc1 (configuration not stated)	inactive
O=C(O)c1ccc(Nc2nc3nn(Cc4ccccc4)cc3c(=O)s2)cc1	inactive
CCCCC(C)/C=C/C(O)=C1\C(=O)O/C(=C\C(=O)O)C1=O (configuration not stated)	inactive
Nc1nc(N)c2ncn(CC(CO)CC(c3ccccc3)P(=O)(O)O)c2n1 (configuration not stated)	inactive
N#Cc1c(N)sc2c1-c1ccccc1OC2	inactive
NC(CCCCCP(=O)(O)O)C(=O)O (configuration not stated) [AP-7]	inactive
CCOC(=O)C(=O)Nc1ccccc1C	inactive
O=C(NCCCCCCCCNC(=O)c1cccc2ccccc12)c1cccc2ccccc12	inactive
O=C1/C(=C/c2ccccc2)CN(C(=O)Oc2ccccc2)C/C1=C\c1ccccc1	inactive
C/C=C/[P+](c1ccccc1)(c1ccccc1)c1ccccc1	active
COC(=O)[C@@H]1CC(C(C[N+](=O)[O-])c2ccc(O[Si](C)(C)C(C)(C)C)cc2)C(=O)N1C(=O)OC(C)(C)C (some centres not stated)	inactive
CC(C)C1=CCC2C(=C1)CCC1C(C)(C(=O)O)CCCC21C (configuration not stated)	inactive
O=c1c2ccccc2nc(-c2cc3c(cc2Cl)Sc2nccn2S3(=O)=O)n1-c1ccccc1	inactive
O=C(NC1C(=O)NC(CCc2ccccc2)NC1=O)OCc1ccccc1 (configuration not stated)	inactive
O=C1CCC(NC(=O)c2ccccc2)C(=O)N1 (configuration not stated)	inactive
N#C/C(=C\c1cc(F)cc(F)c1)c1ccccn1	inactive
O=C1CC(Sc2nc3ccc(I)cc3c(=O)n2Cc2ccccc2)C(=O)NN1 (configuration not stated)	inactive
Nc1ccccc1NC(=O)c1ccc(CNC(=O)OCc2cccnc2)cc1 [ENTINOSTAT]	active
CC1(C)OCC2OC3([C@@H]4OC(C)(C)O[C@H]4CO)OC(C)(C)OC3C2O1 (some centres not stated)	inactive
O=C1Nc2ccccc2/C1=N/Nc1ccccc1Cl	inactive
[N-]=[N+]=C1C(=O)C2CC3CC(C2)CC1C3	inactive
CN(C)CCCCN1CCc2c(n(C)c3ccccc23)C1=O	inactive
O=C(NN=C1CCN(Cc2ccccc2)CC1)C(O)(c1ccccc1)c1ccccc1	inactive
CCOP(=O)(O)CN1CCNCCN(CP(=O)(O)OCC)CCNCC1	inactive
Cc1c(-c2ccccc2)[nH]n(C2=NCCN2)c1=O	inactive
COc1ccc(C2COc3c(ccc(O)c3C)C2)cc1OC (configuration not stated)	inactive
CCOP(C)(=O)/C(Cc1ccc(OC)c(OC)c1)=N\O (configuration not stated)	inactive
C=C1C(=O)O[C@@H]2OC3(C)CCC4C(C)CCC1C42OO3 (some centres not stated)	inactive
CC(=O)N1CC2Nc3ccccc3C2CC1CO (configuration not stated)	inactive
CCOC(C)OCC#CCCBr (configuration not stated)	inactive
O=C(NCCCCNCCCNC(=O)C(F)(F)F)C(F)(F)F	inactive
